All figures here come from ChEMBL document CHEMBL5120927.

- ASSAY TEXT: Hemolytic activity in human RBC assessed as haemoglobin release measured after 3 hr
- Format: toxicity, cell-based, Erythrocyte
- ASSAY SETUP: red blood cells (erythrocytes)
In this section, each of the compounds is paired with its reported HC50 at 3 h.

COMPOUND: CCCCOP(=O)(CCN(CCCN)CCCN)OCCCCCCCCCCCCOP(=O)(CCN(CCCN)CCCN)OCCCC.Cl.Cl.Cl.Cl.Cl.Cl (centres undefined)
RESULT MODIFIER: >
HC50 at 3 h [µg/mL]: 500
--
COMPOUND: Cl.Cl.Cl.Cl.Cl.Cl.NCCCN(CCCN)CCP(=O)(OCCCOP(=O)(CCN(CCCN)CCCN)OCCC12CC3CC(CC(C3)C1)C2)OCCC12CC3CC(CC(C3)C1)C2 (centres undefined)
RESULT MODIFIER: =
HC50 at 3 h [µg/mL]: 196
--
COMPOUND: CC/C=C\CCCOP(=O)(CCN(CCCN)CCCN)OCCCOP(=O)(CCN(CCCN)CCCN)OCCC/C=C\CC.Cl.Cl.Cl.Cl.Cl.Cl (centres undefined)
RESULT MODIFIER: >
HC50 at 3 h [µg/mL]: 200
--
COMPOUND: CCCCCCCCCCOP(=O)(CCN(CCCN)CCCN)OCCCCCCOP(=O)(CCN(CCCN)CCCN)OCCCCCCCCCC.Cl.Cl.Cl.Cl.Cl.Cl (centres undefined)
RESULT MODIFIER: =
HC50 at 3 h [µg/mL]: 16

====

- ASSAY TEXT: Gradient chromatographic hydrophobicity index of the compound at pH 3.7 by HPLC analysis
- Format: ADME

COMPOUND: Cl.Cl.Cl.Cl.Cl.Cl.NCCCN(CCCN)CCP(=O)(OCCCCCCCOP(=O)(CCN(CCCN)CCCN)OCCCC(F)(F)F)OCCCC(F)(F)F (stereo not drawn)
CHI: 24.6
--
COMPOUND: Cl.Cl.Cl.Cl.Cl.Cl.NCCCN(CCCN)CCP(=O)(OCCCCCCOP(=O)(CCN(CCCN)CCCN)OCCC12CC3CC(CC(C3)C1)C2)OCCC12CC3CC(CC(C3)C1)C2 (stereo not drawn)
CHI: 38.4
--
COMPOUND: CC/C=C\CCCOP(=O)(CCN(CCCN)CCCN)OCCCCCOP(=O)(CCN(CCCN)CCCN)OCCC/C=C\CC.Cl.Cl.Cl.Cl.Cl.Cl (stereo not drawn)
CHI: 27.7

====

In this section, each of the compounds is paired with its reported CHI.
- ASSAY TEXT: Gradient chromatographic hydrophobicity index of the compound at pH 3.7 by HPLC analysis
- Format: ADME

COMPOUND: Cl.Cl.Cl.Cl.Cl.Cl.NCCCN(CCCN)CCP(=O)(OCCCOP(=O)(CCN(CCCN)CCCN)OCCC12CC3CC(CC(C3)C1)C2)OCCC12CC3CC(CC(C3)C1)C2 (stereo not drawn)
CHI: 36.9
//
COMPOUND: Cl.Cl.Cl.Cl.Cl.Cl.NCCCN(CCCN)CCP(=O)(OCCCCCCCCCCCCOP(=O)(CCN(CCCN)CCCN)OCCc1ccccc1)OCCc1ccccc1 (stereo not drawn)
CHI: 34.8
//
COMPOUND: CCCCCCCCOP(=O)(CCN(CCN)CCN)OCCCCCCOP(=O)(CCN(CCN)CCN)OCCCCCCCC.Cl.Cl.Cl.Cl.Cl.Cl (stereo not drawn)
CHI: 43.2
//
COMPOUND: Cl.Cl.Cl.Cl.Cl.Cl.N=C(N)NCCCN(CCCNC(=N)N)CCP(=O)(OCCCCCCCOP(=O)(CCN(CCCNC(=N)N)CCCNC(=N)N)OCCCC(F)(F)F)OCCCC(F)(F)F (stereo not drawn)
CHI: 25.2
//
COMPOUND: CCCCC/C=C\CCCOP(=O)(CCN(CCCN)CCCN)OCCCOP(=O)(CCN(CCCN)CCCN)OCCC/C=C\CCCCC.Cl.Cl.Cl.Cl.Cl.Cl (stereo not drawn)
CHI: 39.8
//
COMPOUND: CCC/C=C\CCOP(=O)(CCN(CCCN)CCCN)OCCCCCCCCOP(=O)(CCN(CCCN)CCCN)OCC/C=C\CCC.Cl.Cl.Cl.Cl.Cl.Cl (stereo not drawn)
CHI: 32.8
//
COMPOUND: CCCC/C=C\CCOP(=O)(CCN(CCN)CCN)OCCCCCCOP(=O)(CCN(CCN)CCN)OCC/C=C\CCCC.Cl.Cl.Cl.Cl.Cl.Cl (stereo not drawn)
CHI: 40.1
//
COMPOUND: CCC/C=C\CCOP(=O)(CCN(CCCNC(=N)N)CCCNC(=N)N)OCCCCCCOP(=O)(CCN(CCCNC(=N)N)CCCNC(=N)N)OCC/C=C\CCC.Cl.Cl.Cl.Cl.Cl.Cl (stereo not drawn)
CHI: 29.7
//
COMPOUND: CCCCCCCCOP(=O)(CCN(CCN)CCN)OCCCCCCCCOP(=O)(CCN(CCN)CCN)OCCCCCCCC.Cl.Cl.Cl.Cl.Cl.Cl (stereo not drawn)
CHI: 45.2
//
COMPOUND: Cl.Cl.Cl.Cl.Cl.Cl.NCCCN(CCCN)CCP(=O)(OCCCCCCOP(=O)(CCN(CCCN)CCCN)OCCc1ccccc1)OCCc1ccccc1 (stereo not drawn)
CHI: 11.9
//
COMPOUND: CC(C)COP(=O)(CCN(CCCN)CCCN)OCCCCCCCCCCOP(=O)(CCN(CCCN)CCCN)OCC(C)C.Cl.Cl.Cl.Cl.Cl.Cl (stereo not drawn)
CHI: 35
//
COMPOUND: CCCCC/C=C\CCCOP(=O)(CCN(CCCN)CCCN)OCCCCCCOP(=O)(CCN(CCCN)CCCN)OCCC/C=C\CCCCC.Cl.Cl.Cl.Cl.Cl.Cl (stereo not drawn)
CHI: 40.6
//
COMPOUND: CCCCCCCCCCOP(=O)(CCN(CCCN)CCCN)OCCCCCCCCCCOP(=O)(CCN(CCCN)CCCN)OCCCCCCCCCC.Cl.Cl.Cl.Cl.Cl.Cl (stereo not drawn)
CHI: 46.9
